FYI, the data here is from ChEMBL document CHEMBL1201862.

- System: NCI/ADR-RES
- method: NCI tumour cell line growth inhibition, 48 h
Calls of active or inactive are those of the source. No stated cut-off is given here; in the data, active = GI50 up to about 1.1 µM and inactive = higher.
Item-by-item account of GI50

- CCC(C)C(=O)OC1CC2(C)C(c3ccoc3)OC(=O)CC23OC2(C)OC34C(OC(=O)C(C)C)C3(O)C(OC(=O)C5(C)OC5C)C5(C)CC3(O)C(C)(C5CC(=O)OC)C14O2 (configuration not stated): 21.7 µM (inactive)
- CC(=O)OCC(=O)O[C@@H]1[C@H]2[C@@H](OC(=O)c3ccccc3)[C@@H](C)C[C@]2(O)[C@H](OC(C)=O)[C@@]2(C)C[C@]1(OC(C)=O)C[C@H]1C(=O)C(C)(C)[C@@H](OC(C)=O)[C@@H]12: > 25 µM (inactive)
- O=C1CSC2=NC3=C(CSC/C3=C\c3ccc(Cl)cc3)C(c3ccc(Cl)cc3)N12 (configuration not stated): 24.4 µM (inactive)
- N=C1/C(=C/c2ccccc2)C(=O)N=C2SC=NN12: > 100 µM (inactive)

Reported GI50, molecule "O=C1C=C/C(=C/[C@H]2SSC=C[C@]23C=CC(=O)C3)C1" : ____
23.8 µM (inactive)

Reported GI50, molecule CN(C)C(=O)C(F)(F)C(c1ccc(Br)cc1)C1C(=O)N(C)C(=O)N(C)C1=O (configuration not stated) : ____
> 100 µM (inactive)

Reported GI50, molecule O=C(OCC1OC(n2nc(Cn3nnc(-c4cccnc4)n3)n(-c3cccc4ccccc34)c2=S)C(OC(=O)c2ccccc2)C1OC(=O)c1ccccc1)c1ccccc1 (configuration not stated) : ____
> 100 µM (inactive)

Reported GI50, molecule "CC/C(Cl)=N\OC(=O)Nc1ccc(F)cc1F" : ____
17.8 µM (inactive)

====

- Tested on: HCC 2998
- method: NCI tumour cell line growth inhibition, 48 h
Active and inactive are the calls of the source. Cut-off read from the data, not from the text of the source: active = GI50 up to about 1.1 µM and inactive = higher.
value type: GI50

Reference set (2 entries):
- CC(C)(C)OC(=O)[C@@H]1CCC(=S)N1Cc1ccccc1: > 100 µM (inactive)
- COC(=O)C(Cc1ccc(N(C)C)cc1)(NC(=O)c1ccccc1)P(=O)(OC)OC (stereo not given): > 100 µM (inactive)

Reported GI50, molecule "Fc1ccc(OCc2ccc3nc(-c4ccccc4)c(Cl)nc3c2)cc1" : ____
40.5 µM (inactive)

Reported GI50, molecule "CC(=O)OCC(=O)O[C@@H]1[C@H]2[C@@H](OC(=O)c3ccccc3)[C@@H](C)C[C@]2(O)[C@H](OC(C)=O)[C@@]2(C)C[C@]1(OC(C)=O)C[C@H]1C(=O)C(C)(C)[C@@H](OC(C)=O)[C@@H]12" : ____
9.38 µM (inactive)

Reported GI50, molecule COC(=O)C(C(=O)C(=O)NC1=C(Cl)C(=O)c2ccccc2C1=O)c1csc(-n2nc(-c3ccccc3)cc2-c2ccccc2)n1 (stereo not given) : ____
> 100 µM (inactive)

Reported GI50, molecule "COc1ccccc1/C=C1\N=C(C)OC1=O" : ____
> 100 µM (inactive)

Reported GI50, molecule CCC(C)C(=O)O[C@H]1C(=O)O[C@@H]2C[C@H]3C(C)=CC(=O)[C@@H](O)[C@]3(C)[C@H]3[C@@H](O)[C@H](O)[C@@]4(C)OC[C@]32[C@@H]14 (stereo not given in full) : ____
< 0.0147 µM (active)
